src = patent US20260285998

# measurement-target: cynomolgus BCMA-Fc (cynomolgus)
# Sequence (chain, as listed by the source): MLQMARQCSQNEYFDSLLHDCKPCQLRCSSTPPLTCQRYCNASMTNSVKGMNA
# procedure-details: SPR, 25C
observable: Kd (nM)
A number alone suffices; assume nM.

Exercise: Given the entry P1AG5067 (54_VH1a/VL1a_L1_pGL) (antibody, V domains shown) VH: EVQLVESGGGLVKPGGSLRLSCAASGFTFSNAWMDWVRQAPGKGLEWVGQITAKSNNYATYYAAPVKGRFTISRDDSKNTLYLQMNSLKTEDTAVYYCTDDGYHWGQGTLVTVSS VL: AIQMTQSPSSLSASVGDRVTITCRASEDIRNDLGWYQQKPGKAPKLLIYNANSLHTGVPSRFSGSGSGTDFTLTISSLQPEDFATYYCEDTSKYPYTFGQGTKLEIK , report its measured Kd.
Key: 1.7

Exercise: Given the entry P1AG5036 (E04_VH1a/VL1f) (antibody, V domains shown) VH: QVQLVQSGAEVKKPGASVKVSCKASGYTFTNYWMHWVRQAPGQGLEWMGIIHPNSGSTNYNEKFQGRVTMTRDTSTSTVYMELSSLRSEDTAVYYCARGIYDYPFAYWGQGTLVTVSS VL: DIQMTQSPSSLSASVGDRVTITCRASESVSIHGTHLMHWYQQKPGKAPKLLIYAASSLQSGVPSRFSGSGSETDFTLTISSLQPEDFATYYCQQSIEDPYTFGGGTKVEIK , report its measured Kd.
Key: 9.5

Exercise: Given the entry P1AG5064 (54_VH1b/VL1a_N651A_N695S) (antibody, V domains shown) VH: EVQLVESGGGLVKPGGSLRLSCAASGFTFSNAWMDWVRQAPGKGLEWIAQITAKSNNYATYYAAPVKGRFTISRDDSKNTLYLQMNSLKTEDTAVYYCTDDGYHWGQGTLVTVSS VL: AIQMTQSPSSLSASVGDRVTITCRASEDIRNGLAWYQQKPGKAPKLLIYAASSLHTGVPSRFSGSGSGTDFTLTISSLQPEDFATYYCEDTSKYPYTFGQGTKLEIK , report its measured Kd.
Key: 13
